# Test system: 186277-243-T-J2-PDC complex spheroid growth;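 further: spheroids exposed to compounds for seven days before the viability read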
# test.method.notes: Anticancer human tumor 186277-243-T-J2-PDC patient-derived colon adenocarcinoma cell line growth inhibition [AhR]
# reported.conditions: curve of first compound; second compound 10 µM
reported.endpoint: IC50 (nM)

Below are worked cases with known answers.
NS(=O)(=O)OCC1CC(n2ccc3c(NC4CCc5ccccc54)ncnc32)CC1O (stereo not given) + CC(CO)NC(=O)c1cc(-c2ccc(Cl)cc2)nn(-c2cnn(C)c2)c1=O :: 110
Nc1ccccc1NC(=O)c1ccc(CNC(=O)OCc2cccnc2)cc1 + Cc1ccccc1N=Nc1ccc(NC(=O)c2ccnn2C)c(C)c1 :: 4120
COc1ccc([C@@H](O)c2cc(-c3ncnc4cc(N5CCOCC5)ccc34)c(F)cc2Cl)nn1 + Cc1ccccc1N=Nc1ccc(NC(=O)c2ccnn2C)c(C)c1 :: 9260

(I) CCc1c2c(nc3ccc(O)cc13)-c1cc3c(c(=O)n1C2)COC(=O)[C@]3(O)CC + Cc1ccccc1N=Nc1ccc(NC(=O)c2ccnn2C)c(C)c1
(II) NS(=O)(=O)OCC1CC(n2ccc3c(NC4CCc5ccccc54)ncnc32)CC1O (stereo not given) + Cc1ccccc1N=Nc1ccc(NC(=O)c2ccnn2C)c(C)c1
(III) CC1(C)CCC(CN2CCN(c3ccc(C(=O)NS(=O)(=O)c4ccc(NCC5CCOCC5)c([N+](=O)[O-])c4)c(Oc4cnc5[nH]ccc5c4)c3)CC2)=C(c2ccc(Cl)cc2)C1 + Cc1ccccc1N=Nc1ccc(NC(=O)c2ccnn2C)c(C)c1
(IV) CC1COCCN1c1cc(C2(S(C)(=N)=O)CC2)nc(-c2ccnc3[nH]ccc23)n1 (stereo not given) + CC(CO)NC(=O)c1cc(-c2ccc(Cl)cc2)nn(-c2cnn(C)c2)c1=O
Rank the items in ascending order with respect to IC50. I would appreciate it if you listed the labels in the requested order. I, II, IV, III

Reference for the values: PubChem BioAssay AID1918991
